Task for the reader: assign each of the following compounds its reported inhibition of SARS-CoV-2 cytopathic effect.
- Tested on: Vero E6 infected with SARS-CoV-2
- ASSAY REMARKS: inhibition of SARS-CoV-2 cytopathic effect; higher = more antiviral protection, active = above 15
- MEASUREMENT PARAMETERS: 10000 nM; 48 h
Numbers only, in %.

Solved entries:
compound=CS(=O)(=O)CCNCc1nc(-c2ccc3ncnc(Nc4ccc(OCc5cccc(F)c5)c(Cl)c4)c3c2)cs1 observed_result=-4.14
compound=COc1cc(C=O)ccc1O observed_result=-2.8
compound="COc1ccccc1OCC(O)CN1CCN(CC(=O)Nc2c(C)cccc2C)CC1 (stereo unspecified)" observed_result=-0.73
compound=O=c1[nH]cnc2c1ncn2[C@H]1CC[C@@H](CO)O1 observed_result=-1.54
compound="CN(C)CC/C=C1\\c2ccccc2CSc2ccccc21 [dosulepin]" observed_result=-8.17

Please go through the list and note inhibition of SARS-CoV-2 cytopathic effect for each compound.
1. COc1ccc(-c2cc3nccn3c(Nc3ncccc3C(N)=O)n2)cc1OC
2. CC(=O)OCC1=C(C(=O)O)N2C(=O)[C@@H](NC(=O)Cc3cccs3)[C@H]2SC1
3. CCCC(CCC)C(=O)NCC(N)=O [valrocemide]
4. COc1cc2c(NC3CCN(C)CC3)nc(N3CCCN(C)CC3)nc2cc1OCCCN(C)C
5. OCc1ccccc1O[C@@H]1O[C@H](CO)[C@@H](O)[C@H](O)[C@H]1O
6. OC[C@@H](O)[C@@H](O)CO
7. C[C@@H](NC(=O)[C@@H](N)Cc1ccc(O)cc1)C(=O)NCC(=O)N(C)[C@@H](Cc1ccccc1)C(=O)N[C@H](CO)CC[S+](C)[O-] (stereo partly specified)

result:
-6.9
1.33
3.56
4.51
5.91
0.5
0.65

Please go through the list and note inhibition of SARS-CoV-2 cytopathic effect for each compound.
1. CCCOc1ccc(Br)cc1-c1cc(-c2ccc(Cl)cc2)[nH]c1-c1ccncc1
2. CCc1ccc2c(-c3cccc(Cl)c3)nc(=O)n(CC)c2n1
3. O=C(Nc1ccc(C(=O)O)c(O)c1)c1ccccc1
4. CC(NCCC(c1ccccc1)c1ccccc1)c1ccccc1 (stereo unspecified)
5. CCC(N)C(O)c1ccc(O)c(O)c1 (stereo unspecified) [ethylnorepinephrine]
6. N=C(C[C@@H](O)COc1ccccc1-c1ccccc1)N1CCCCC1
7. Cc1ccc(CCCO)c(NCc2ccc3nc(NCCCN4CCOCC4)n(Cc4nc(C)ccc4O)c3c2)c1

result:
1: -5.61; 2: 0.57; 3: -0.85; 4: 11.9; 5: -0.69; 6: -2.77; 7: -1.76
